Recorded values, source PubChem BioAssay (NCI).

Tested on: M14 melanoma
Experiment: NCI-60 one-dose screen, 48 h (100 = growth as untreated, 0 = no growth, -100 = all killed)
Details: 10 µM unless noted
The panel holds about 83,000 compounds, 20% with a hit somewhere; the sample as a whole holds those more often.
Threshold 70%. growth below it: t. growth at it or above: f.

COc1cc(NC(=O)c2cc3ccccc3nc2Nc2ccc(F)cc2)cc(OC)c1OC    t
CNC(=O)Cc1nc(-c2cccc(NS(=O)(=O)c3c(F)cccc3F)c2F)c(-c2ccnc(Nc3ccccc3)n2)s1    t
CCC(c1ccc(OC)cc1)C(CC)c1ccc(O)c(CN2CCCC2)c1 (stereo unspecified)    t
COc1ccc(/C(=N/O)c2cc(F)c(F)c(OC)c2F)cc1O    t
NC(=O)c1c(NC(=O)c2ccc3c(c2)OCO3)sc2c1CCC(=O)C2    t
Cc1ccc(Cn2c(-c3nonc3N)nc3ccccc32)cc1    t
O=C(CNC1CCCCC1)Nc1ccc(-c2nc3ccccc3s2)cc1    f
CCn1c(=O)c2c(=O)c3c4c(oc3oc2c2ccccc21)C(=O)c1ccccc1C4=O    f
c1ccc2c(c1)Oc1ccccc1C2C1c2ccccc2Oc2ccccc21    f
COc1cc(CNC(=O)CCSc2nc3ccccc3c(=O)n2Cc2cc(OC)c(OC)c(OC)c2)cc(OC)c1OC    t
CCOC(=O)c1cc(/C(=N\O)c2cc(OC)c(OC)c(OC)c2)n2c(C)cccc12    t
O=Nc1c(-c2c(O)[nH]c3ccc([N+](=O)[O-])cc23)[nH]c2ccc(O)cc12    t
COc1cccc(-c2nc3sccn3c2-c2ccnc(NCCNS(=O)(=O)c3ccccc3)n2)c1    t
Clc1nc(-c2cccnc2)nc2sc3c(c12)CCCCCC3    f
CSc1nc(-c2cc3ccccc3o2)cc(-c2ccc(Cl)cc2)c1C#N    t
CCCCCCc1nc2c(c(C)nn2-c2ccccc2)c2c1CCCCC2    f
CN(C)C1CCC(NC2=CC(=O)C=CC2=O)CC1 (stereo unspecified)    f
COc1ccc([N+](=O)[O-])c(/C=C/C(=O)c2ccccn2)c1    f
Cc1ccc(OCCn2c(C)nn(-c3ccc(Cl)cc3)c2=O)cc1    f
O=C(COc1ccccc1)N1N=C(c2ccc(Cl)cc2)CC1c1c[nH]c2ccccc12 (stereo unspecified)    f
